Target Desc: CFTR-G178R (Homo sapiens, UniProt P13569, G178R)
Sequence (P13569 whole entry G178R): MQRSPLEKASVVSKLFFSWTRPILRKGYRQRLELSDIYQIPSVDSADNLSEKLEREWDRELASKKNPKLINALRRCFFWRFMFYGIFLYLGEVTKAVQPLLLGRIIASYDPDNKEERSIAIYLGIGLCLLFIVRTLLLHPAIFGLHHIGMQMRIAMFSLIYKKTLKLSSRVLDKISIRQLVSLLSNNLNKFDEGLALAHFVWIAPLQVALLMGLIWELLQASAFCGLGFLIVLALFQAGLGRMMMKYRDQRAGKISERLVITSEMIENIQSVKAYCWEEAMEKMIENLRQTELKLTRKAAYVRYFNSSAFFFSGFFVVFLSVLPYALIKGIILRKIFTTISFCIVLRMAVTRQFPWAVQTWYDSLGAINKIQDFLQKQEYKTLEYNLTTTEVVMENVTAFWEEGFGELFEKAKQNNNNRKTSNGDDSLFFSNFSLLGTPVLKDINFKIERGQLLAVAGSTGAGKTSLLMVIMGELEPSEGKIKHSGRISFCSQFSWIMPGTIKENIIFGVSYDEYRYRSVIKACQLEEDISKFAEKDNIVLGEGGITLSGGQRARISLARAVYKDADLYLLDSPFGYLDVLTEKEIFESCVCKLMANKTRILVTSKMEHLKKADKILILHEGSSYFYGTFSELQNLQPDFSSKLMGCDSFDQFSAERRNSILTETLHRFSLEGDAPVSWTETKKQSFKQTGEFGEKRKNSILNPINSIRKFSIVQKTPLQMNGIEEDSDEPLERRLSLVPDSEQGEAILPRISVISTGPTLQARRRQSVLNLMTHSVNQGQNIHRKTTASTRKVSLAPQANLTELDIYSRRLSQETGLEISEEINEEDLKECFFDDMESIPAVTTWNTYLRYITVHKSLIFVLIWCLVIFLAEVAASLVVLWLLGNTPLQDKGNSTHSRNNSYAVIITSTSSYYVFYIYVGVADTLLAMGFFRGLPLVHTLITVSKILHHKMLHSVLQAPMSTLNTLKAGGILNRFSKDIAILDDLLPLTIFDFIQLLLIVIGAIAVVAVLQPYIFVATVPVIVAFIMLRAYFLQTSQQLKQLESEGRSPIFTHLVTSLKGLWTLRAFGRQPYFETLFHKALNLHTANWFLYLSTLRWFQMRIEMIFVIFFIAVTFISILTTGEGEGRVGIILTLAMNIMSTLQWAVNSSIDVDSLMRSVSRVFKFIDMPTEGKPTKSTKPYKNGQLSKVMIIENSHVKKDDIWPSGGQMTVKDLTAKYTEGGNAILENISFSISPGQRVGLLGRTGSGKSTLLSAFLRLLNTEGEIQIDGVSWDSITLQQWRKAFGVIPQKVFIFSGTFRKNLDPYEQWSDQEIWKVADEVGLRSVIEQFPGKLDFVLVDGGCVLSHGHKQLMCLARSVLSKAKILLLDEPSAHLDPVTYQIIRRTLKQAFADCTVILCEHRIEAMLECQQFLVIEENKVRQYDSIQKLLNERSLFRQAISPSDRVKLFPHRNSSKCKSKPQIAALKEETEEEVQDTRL
Assay Method Text: YFP-halide influx assay for the CFTR-G178R
Protocol: The YFP halide influx assay measures the functionality of the cystic fibrosis Transmembrane Conductance regulator (CFTR) channels. […] It makes use of the observation that the yellow fluorescent protein (YFP) variant YFP H148Q, I152L, […] has its fluorescence substantially quenched by halide ions like Cl^− and I^−. […] The I^−-induced quenching of fluorescence is recorded immediately after injection of I^− for 7 seconds. […]
pEC50: −log10 of the molar value.
Reported values of pEC50 for individual entries
Measured Attribute: pEC50

INSERT INTO assay_data (compound, comparative_sign, observed_measurement) VALUES
  ('CC(C)(O)C(=O)Nc1sc(S(=O)(=O)c2cc(Cl)ccc2OC(F)F)cc1C(N)=O [Compound 401]', '=', 6.98),
  ('CC(C)(O)C(=O)Nc1sc(S(=O)(=O)c2ccccc2OC(F)(F)F)cc1C(N)=O [Compound 271]', '=', 7.62),
  ('NC(=O)c1cc(S(=O)(=O)c2ccccc2OC(F)(F)F)sc1NC(=O)C1(CO)CC1 [Compound 320]', '=', 7.25),
  ('CC(C)(O)C(=O)Nc1sc(S(=O)(=O)c2ccc(OC(F)(F)F)cc2F)cc1C(N)=O [Compound 375]', '=', 7.03),
  ('CC(O)C(=O)Nc1sc(S(=O)(=O)c2cc(F)ccc2CC(F)(F)F)cc1C(N)=O (stereo not shown) [Compound 334]', '=', 7.35),
  ('C[C@H](O)C(=O)Nc1sc(S(=O)(=O)c2ccc(OC(F)(F)F)cc2)cc1C(N)=O [Compound 331]', '=', 7.17),
  ('CC(C)(O)C(=O)Nc1sc(S(=O)(=O)c2c(F)cc(F)cc2OC(F)F)cc1C(N)=O [Compound 405]', '<', 6.00);

###

Target Desc: CFTR-S549N (Homo sapiens, UniProt P13569, S549N)
Construct: expressed in transfected cells
Sequence (P13569 whole entry S549N): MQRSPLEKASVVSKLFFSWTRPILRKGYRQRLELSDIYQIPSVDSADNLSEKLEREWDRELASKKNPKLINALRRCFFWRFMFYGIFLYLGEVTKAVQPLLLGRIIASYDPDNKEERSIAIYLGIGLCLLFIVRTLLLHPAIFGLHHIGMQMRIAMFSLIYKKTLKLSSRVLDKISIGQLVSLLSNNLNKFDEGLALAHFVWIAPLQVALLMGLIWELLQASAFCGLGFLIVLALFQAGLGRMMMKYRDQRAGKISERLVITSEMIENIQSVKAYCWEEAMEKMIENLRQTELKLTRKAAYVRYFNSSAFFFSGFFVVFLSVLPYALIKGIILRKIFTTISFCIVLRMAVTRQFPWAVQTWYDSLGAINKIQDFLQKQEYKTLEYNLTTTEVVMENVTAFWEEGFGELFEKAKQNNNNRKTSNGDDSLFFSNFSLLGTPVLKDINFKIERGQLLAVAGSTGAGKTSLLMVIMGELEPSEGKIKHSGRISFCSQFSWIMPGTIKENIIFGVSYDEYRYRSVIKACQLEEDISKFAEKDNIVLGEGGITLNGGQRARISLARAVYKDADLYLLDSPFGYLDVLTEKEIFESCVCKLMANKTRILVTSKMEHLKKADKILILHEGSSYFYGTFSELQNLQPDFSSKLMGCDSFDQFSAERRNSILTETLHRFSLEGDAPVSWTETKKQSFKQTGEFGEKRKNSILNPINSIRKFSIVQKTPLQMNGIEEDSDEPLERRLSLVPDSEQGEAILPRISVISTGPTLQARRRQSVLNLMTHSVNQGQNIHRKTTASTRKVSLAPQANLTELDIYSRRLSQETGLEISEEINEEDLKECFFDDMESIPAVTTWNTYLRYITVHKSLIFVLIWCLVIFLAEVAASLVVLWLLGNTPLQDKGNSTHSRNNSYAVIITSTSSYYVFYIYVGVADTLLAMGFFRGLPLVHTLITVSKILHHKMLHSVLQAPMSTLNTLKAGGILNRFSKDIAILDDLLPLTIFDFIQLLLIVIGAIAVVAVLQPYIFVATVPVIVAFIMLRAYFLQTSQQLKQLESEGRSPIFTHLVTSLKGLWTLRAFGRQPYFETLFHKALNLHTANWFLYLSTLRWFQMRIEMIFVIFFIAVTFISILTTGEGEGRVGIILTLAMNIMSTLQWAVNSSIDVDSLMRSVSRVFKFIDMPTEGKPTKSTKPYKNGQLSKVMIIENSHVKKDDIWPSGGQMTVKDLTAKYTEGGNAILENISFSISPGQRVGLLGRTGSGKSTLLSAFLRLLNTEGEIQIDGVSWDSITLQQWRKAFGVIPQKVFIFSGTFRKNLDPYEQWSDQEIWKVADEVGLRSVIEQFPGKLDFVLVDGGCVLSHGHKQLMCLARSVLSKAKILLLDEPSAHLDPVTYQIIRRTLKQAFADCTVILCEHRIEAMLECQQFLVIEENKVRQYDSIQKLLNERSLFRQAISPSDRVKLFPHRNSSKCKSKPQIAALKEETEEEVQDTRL
Assay Method Text: YFP-halide influx assay for the CFTR-S549N
Assay type: cell-based
Measured Attribute: EC50

INSERT INTO assay_data (chemical_string, target_desc, measured_attribute, observed_measurement) VALUES
  ('CC(C)(O)C(=O)Nc1sc(S(=O)(=O)c2ncccc2C(F)(F)F)cc1C(N)=O', 'CFTR-S549N (Homo sapiens, UniProt P13569, S549N)', 'EC50', '0.861 µM'),
  ('CC(C)(O)C(=O)Nc1sc(S(=O)(=O)c2ccsc2C(F)(F)F)cc1C(N)=O', 'CFTR-S549N (Homo sapiens, UniProt P13569, S549N)', 'EC50', '0.715 µM'),
  ('NC(=O)c1cc(S(=O)(=O)c2ccccc2OC(F)(F)F)sc1NC(=O)C1(CO)CC1', 'CFTR-S549N (Homo sapiens, UniProt P13569, S549N)', 'EC50', '0.131 µM'),
  ('CC(C)(O)C(=O)Nc1sc(S(=O)(=O)c2ccc(C(C)(C)C)cn2)cc1C(N)=O', 'CFTR-S549N (Homo sapiens, UniProt P13569, S549N)', 'EC50', '0.405 µM'),
  ('CC(C)(O)C(=O)Nc1sc(S(=O)(=O)c2cc(C(F)(F)F)ncc2Cl)cc1C(N)=O', 'CFTR-S549N (Homo sapiens, UniProt P13569, S549N)', 'EC50', '0.322 µM'),
  ('CC(C)(O)C(=O)Nc1sc(S(=O)(=O)c2ccc(C(F)(F)F)cn2)cc1C(N)=O', 'CFTR-S549N (Homo sapiens, UniProt P13569, S549N)', 'EC50', '0.221 µM'),
  ('C[C@@H](CO)C(=O)Nc1sc(S(=O)(=O)c2ccc(OC(F)(F)F)cc2)cc1C(N)=O', 'CFTR-S549N (Homo sapiens, UniProt P13569, S549N)', 'EC50', '0.155 µM');
